- subject-of-test: human recombinant adrenergic α2A receptor (Homo sapiens)
- Construct: expressed in transfected cells; host or cells: insect Sf9 cells
- Sequence (P08913 whole entry): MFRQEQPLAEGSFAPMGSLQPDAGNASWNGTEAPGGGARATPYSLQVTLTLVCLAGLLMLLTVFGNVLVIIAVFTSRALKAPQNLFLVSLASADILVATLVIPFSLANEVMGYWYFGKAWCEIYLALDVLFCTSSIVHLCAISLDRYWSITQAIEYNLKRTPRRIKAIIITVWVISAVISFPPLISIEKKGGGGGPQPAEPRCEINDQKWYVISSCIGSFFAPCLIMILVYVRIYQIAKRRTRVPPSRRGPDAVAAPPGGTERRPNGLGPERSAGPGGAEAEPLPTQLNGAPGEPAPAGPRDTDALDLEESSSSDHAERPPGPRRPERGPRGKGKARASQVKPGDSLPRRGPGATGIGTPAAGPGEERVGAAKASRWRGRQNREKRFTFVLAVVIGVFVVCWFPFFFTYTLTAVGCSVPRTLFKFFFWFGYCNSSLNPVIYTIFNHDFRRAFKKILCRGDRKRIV
- test-name: Adrenergic α2A radioligand binding ([3H]MK-912)
- protocol-conditions: compound at 1 μM; insect Sf9 cells; read-out: Adrenergic (1 μM) α2A, percent inhibition of specific binding
- Protocol: To evaluate in radioligand binding assays the activity of compounds of the invention, human recombinant adrenergic α2A receptor expressed in insect Sf9 cells (Uhlen S et al. J Pharmacol Exp Ther. 271:1558, 1994) in a modified Tris-HCl buffer (50 mM Tris-HCl, pH 7.4, 12.5 mM MgCl2, 2 mM EDTA) was used. […] Receptor proteins were filtered and washed, the filters were then counted to determine [^3H]MK-912 specifically bound. […]
Returns satisfied if the recorded inhibition at 1 µM is greater than or equal to 50%, and not satisfied otherwise.

Below, 6 compounds whose answers are already recorded.
[
  {
    "compound": "Cc1ccc2c(c1)c1c(n2CCNC(=O)c2ccncc2)CCN(C)C1 [Compound 50]",
    "category": "not satisfied"
  },
  {
    "compound": "C#CCn1c2c(c3cc(C)ccc31)CN(C)CC2 [CD73]",
    "category": "satisfied"
  },
  {
    "compound": "CN1CCc2c(c3cc(Cl)ccc3n2CC(=O)NC2CCCCC2)C1 [Compound 60]",
    "category": "not satisfied"
  },
  {
    "compound": "Cc1ccc2c(c1)c1c(n2CCNC(=O)C(C)C)CCN(C)C1 [Compound 61]",
    "category": "not satisfied"
  },
  {
    "compound": "Cc1ccc2c(c1)c1c(n2CCC(=O)O)CCN(C)C1 [CD47]",
    "category": "not satisfied"
  },
  {
    "compound": "Cc1ccc2c(c1)c1c(n2CCBr)CCN(C)C1 [CD91]",
    "category": "satisfied"
  }
]

Reported inhibition at 1 µM reaches at least 50% for CCOC(=O)CCCn1c2c(c3cc(C)ccc31)CN(C)CC2 [Compound 5] ?
satisfied
